Provenance of the data: PubChem BioAssay AID2060498

# Test system: 171881-019-R-J1-PDC tumor spheroids, viability
# test details: Anticancer human tumor 171881-019-R-J1-PDC patient-derived invasive breast carcinoma cell line growth inhibition [GQUAD]
# assay conditions: second compound 0.0316 µM; first compound 0.00316 µM; stronger effect = lower value; spheroids with HUVEC and MSC
measurement label: viability, T/C (%)
Use % as the unit, but write only the number.

Example entries and their recorded answers appear below.
So what's the measured viability, T/C for this one? Cc1[nH]c2ccccc2c1CCNCc1ccc(/C=C/C(=O)NO)cc1 + Cc1[nH]c2ccc(F)cc2c1-c1nc2c3cccnc3c3ncccc3c2[nH]1 107

If you can, please state the reported viability, T/C value of Cn1ncnc1[C@H]1c2n[nH]c(=O)c3cc(F)cc(c23)N[C@@H]1c1ccc(F)cc1 + Cc1cnc(CNC(=O)c2c(=O)c3ccc(N4CCCN(C)CC4)nc3n3c2sc2ccccc23)cn1 . 86.1

Quick one: viability, T/C for Cn1ncnc1[C@H]1c2n[nH]c(=O)c3cc(F)cc(c23)N[C@@H]1c1ccc(F)cc1 + CN(C)c1ccc(Nc2c3ccc(NC(=O)CCN4CCCC4)cc3nc3cc(NC(=O)CCN4CCCC4)ccc23)cc1 ? 98

Dear colleague, I am looking for the recorded viability, T/C of the following compound: CC[C@@]1(O)C(=O)OCc2c1cc1n(c2=O)Cc2cc3c(CN(C)C)c(O)ccc3nc2-1 + CN(C)c1ccc(Nc2c3ccc(NC(=O)CCN4CCCC4)cc3nc3cc(NC(=O)CCN4CCCC4)ccc23)cc1 108

---
Reported viability, T/C for CCc1c2c(nc3ccc(O)cc13)-c1cc3c(c(=O)n1C2)COC(=O)[C@]3(O)CC + CN(C)c1ccc(Nc2c3ccc(NC(=O)CCN4CCCC4)cc3nc3cc(NC(=O)CCN4CCCC4)ccc23)cc1 : what is it? 56.5

So what's the measured viability, T/C for this one? Cc1[nH]c2ccccc2c1CCNCc1ccc(/C=C/C(=O)NO)cc1 + CN(C)c1ccc(Nc2c3ccc(NC(=O)CCN4CCCC4)cc3nc3cc(NC(=O)CCN4CCCC4)ccc23)cc1 104

Which value of viability, T/C has been reported for Cc1[nH]c2ccccc2c1CCNCc1ccc(/C=C/C(=O)NO)cc1 + Cc1cnc(CNC(=O)c2c(=O)c3ccc(N4CCCN(C)CC4)nc3n3c2sc2ccccc23)cn1 in the records? 89.9

Endpoint output: viability, T/C of CC[C@@]1(O)C(=O)OCc2c1cc1n(c2=O)Cc2cc3c(CN(C)C)c(O)ccc3nc2-1 + Cc1[nH]c2ccc(F)cc2c1-c1nc2c3cccnc3c3ncccc3c2[nH]1 . Value? 86.9

Which value of viability, T/C has been reported for Cn1ncnc1[C@H]1c2n[nH]c(=O)c3cc(F)cc(c23)N[C@@H]1c1ccc(F)cc1 + Cc1[nH]c2ccc(F)cc2c1-c1nc2c3cccnc3c3ncccc3c2[nH]1 in the records? 94.5

What does the record list as viability, T/C for CC[C@@]1(O)C(=O)OCc2c1cc1n(c2=O)Cc2cc3c(CN(C)C)c(O)ccc3nc2-1 + Cc1cnc(CNC(=O)c2c(=O)c3ccc(N4CCCN(C)CC4)nc3n3c2sc2ccccc23)cn1 ? 93.7

# input compound: CCc1c2c(nc3ccc(O)cc13)-c1cc3c(c(=O)n1C2)COC(=O)[C@]3(O)CC + Cc1cnc(CNC(=O)c2c(=O)c3ccc(N4CCCN(C)CC4)nc3n3c2sc2ccccc23)cn1 ; wanted: its viability, T/C 39.1

viability, T/C lookup needed for CCc1c2c(nc3ccc(O)cc13)-c1cc3c(c(=O)n1C2)COC(=O)[C@]3(O)CC + Cc1[nH]c2ccc(F)cc2c1-c1nc2c3cccnc3c3ncccc3c2[nH]1 , thanks. 42.4

###

# Tested on: 171881-019-R-J1-PDC tumor spheroids, viability
# test details: Anticancer human tumor 171881-019-R-J1-PDC cell line growth inhibition [GQUAD];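 also: spheroids exposed to compounds for 7 days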
# assay conditions: curve of first compound; second compound 3.16 µM; spheroids with HUVEC and MSC
measurement label: IC50

See these solved cases before continuing.
Give 171881-019-R-J1-PDC tumor spheroids, viability IC50 for O=c1[nH]cc(F)c(=O)[nH]1 + CN(C)c1ccc(Nc2c3ccc(NC(=O)CCN4CCCC4)cc3nc3cc(NC(=O)CCN4CCCC4)ccc23)cc1 < 31.6 nM

Find the measured IC50: item CC(C)n1c(=O)n(C)c2cnc3cc(F)c(-c4ccc(OCCCN5CCCCC5)nc4)cc3c21 + CN(C)c1ccc(Nc2c3ccc(NC(=O)CCN4CCCC4)cc3nc3cc(NC(=O)CCN4CCCC4)ccc23)cc1 , target or system 171881-019-R-J1-PDC tumor spheroids, viability. < 31.6 nM

Given the entry CC1COCCN1c1cc(-c2ccnn2C)c2ccnc(-c3ccn[nH]3)c2n1 (stereo unspecified) + Cc1cnc(CNC(=O)c2c(=O)c3ccc(N4CCCN(C)CC4)nc3n3c2sc2ccccc23)cn1 , what IC50 was observed with 171881-019-R-J1-PDC tumor spheroids, viability? 36.8 nM

Any idea what IC50 came out for CC[C@@]1(O)C(=O)OCc2c1cc1n(c2=O)Cc2cc3c(CN(C)C)c(O)ccc3nc2-1 + CN(C)c1ccc(Nc2c3ccc(NC(=O)CCN4CCCC4)cc3nc3cc(NC(=O)CCN4CCCC4)ccc23)cc1 on 171881-019-R-J1-PDC tumor spheroids, viability? < 0.999 nM

Entry C=CC(=O)N1CCN(c2nc(=O)n(-c3c(C)ccnc3C(C)C)c3nc(-c4c(O)cccc4F)c(F)cc23)C(C)C1 (stereo unspecified) + CN(C)c1ccc(Nc2c3ccc(NC(=O)CCN4CCCC4)cc3nc3cc(NC(=O)CCN4CCCC4)ccc23)cc1 , system 171881-019-R-J1-PDC tumor spheroids, viability: what IC50 was measured? < 31.6 nM

Others:
Identify the measured IC50 of C=CCn1c(=O)c2cnc(Nc3ccc(N4CCN(C)CC4)cc3)nc2n1-c1cccc(C(C)(C)O)n1 + CN(C)c1ccc(Nc2c3ccc(NC(=O)CCN4CCCC4)cc3nc3cc(NC(=O)CCN4CCCC4)ccc23)cc1 for 171881-019-R-J1-PDC tumor spheroids, viability. < 31.6 nM

Lab note: need IC50 for CC(C)n1c(=O)n(C)c2cnc3cc(F)c(-c4ccc(OCCCN5CCCCC5)nc4)cc3c21 + Cc1cnc(CNC(=O)c2c(=O)c3ccc(N4CCCN(C)CC4)nc3n3c2sc2ccccc23)cn1 on 171881-019-R-J1-PDC tumor spheroids, viability, anyone have it? 3710 nM

###

# Test system: 171881-019-R-J1-PDC tumor spheroids, viability
# test details: Anticancer human tumor 171881-019-R-J1-PDC cell line growth inhibition [GQUAD]; active = viability on the fitted dose curve at most 10% of control; inactive = the rest;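 also: spheroids exposed to compounds for 7 days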
# assay conditions: second compound 0.1 µM; first compound 3.16 µM; spheroids with HUVEC and MSC
# From the text: DNA G-quadruplex Stabilizer Agents in Combinations in Complex Spheroids A high-throughput screen of multi-cell type tumor spheroids was designed to identify active combinations of DNA G-quadruplex stabilizer agents and targeted small molecules. […] Compounds. […] If the clinical Cmax for an agent had not been determined, the highest concentration tested was 10 microM. […]
Respond using exactly one of the listed classes: label 1 (active), label 0 (inactive)

Here are 2 molecules together with their reported answers.
// outcome(item) with item = Nc1ccn(C2OC(CO)C(O)C2(F)F)c(=O)n1 (stereo unspecified) + Cc1cnc(CNC(=O)c2c(=O)c3ccc(N4CCCN(C)CC4)nc3n3c2sc2ccccc23)cn1 label 0

Recorded call for COc1cccc2c1C(=O)c1c(O)c3c(c(O)c1C2=O)CC(O)(C(=O)CO)CC3OC1CC(N)C(O)C(C)O1 (stereo unspecified) + Cc1cnc(CNC(=O)c2c(=O)c3ccc(N4CCCN(C)CC4)nc3n3c2sc2ccccc23)cn1 ? label 1

// switching to the query molecule
I'd appreciate the recorded outcome for COc1ncnc(C2CC2)c1-c1ncc2cnn(Cc3ccc(-c4nc(C(F)(F)F)cn4C(C)C)cc3)c2n1 + CN(C)c1ccc(Nc2c3ccc(NC(=O)CCN4CCCC4)cc3nc3cc(NC(=O)CCN4CCCC4)ccc23)cc1 from this test. label 0

###

# Tested on: 171881-019-R-J1-PDC tumor spheroids, viability
# test details: Anticancer human tumor 171881-019-R-J1-PDC cell line growth inhibition [GQUAD]; active = viability on the fitted dose curve at most 10% of control; inactive = the rest;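 also: spheroids exposed to compounds for 7 days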
# assay conditions: second compound 3.16 µM; first compound 10 µM; spheroids with HUVEC and MSC
Return exactly one item of active, inactive

Hi, do you know how CC1COCCN1c1cc(-c2ccnn2C)c2ccnc(-c3ccn[nH]3)c2n1 (stereo not drawn) + Cc1cnc(CNC(=O)c2c(=O)c3ccc(N4CCCN(C)CC4)nc3n3c2sc2ccccc23)cn1 came out in this test? active

Assay outcome for CC(C)n1c(=O)n(C)c2cnc3cc(F)c(-c4ccc(OCCCN5CCCCC5)nc4)cc3c21 + Cc1cnc(CNC(=O)c2c(=O)c3ccc(N4CCCN(C)CC4)nc3n3c2sc2ccccc23)cn1 : what was it? inactive

State the result this test recorded for O=c1[nH]cc(F)c(=O)[nH]1 + Cc1[nH]c2ccc(F)cc2c1-c1nc2c3cccnc3c3ncccc3c2[nH]1 . inactive
